Numbers sourced from patent US10000471B2.

Below, each of the molecules is paired with its reported MTT Assay (Viability) 24 h d-U937, percentage loss of cell viability value.
System: Differentiated U937 cells
assay-name: Cell viability MTT assay
Format: cell-based, human
assay-context: 24 h in 10% FCS; negative = apparent increase in viability
# number only, unit % dropped from output

Examples with their reported MTT Assay (Viability) 24 h d-U937, percentage loss of cell viability follow.
>>> readout_value("COCC(=O)Nc1cc(Oc2ccc(NC(=O)Nc3cc(C(C)(C)C)nn3-c3cccc(CO)c3)c(Cl)c2Cl)ncn1 [Example 92]")
81.0
>>> readout_value("COc1ccc(-n2nc(C(C)(C)C)cc2NC(=O)Nc2ccc(Oc3ccnc(NC(=O)NC4CC4)c3)c(Cl)c2Cl)cc1 [Example 65]")
20.2
>>> readout_value("COCC(=O)Nc1cc(Oc2ccc(NC(=O)Nc3cc(C(C)(C)C)nn3-c3ccc(C)cc3)cc2C#N)ccn1 [Example 28]")
71.0

// next item, MTT Assay (Viability) 24 h d-U937, percentage loss of cell viability requested
IN: Tell me measured MTT Assay (Viability) 24 h d-U937, percentage loss of cell viability for COCC(=O)Nc1cc(Oc2ccc(NC(=O)Nc3cc(C(C)(C)C)nn3-c3ccc(C)cc3)c(Cl)c2Cl)ccn1 [Example 36] please.
OUT: 68.8

====

System: TNFα release in THP-1 cells
assay-name: LPS-induced TNFα release in THP-1 cells
Type: cell-based, human
assay-context: Homo sapiens
Entries and their measured pIC50 follow.
In plain terms, pIC50 is the concentration in mol/L turned into minus its base-10 logarithm.

>>> readout_value("CNC(=O)Nc1cc(Oc2ccc(NC(=O)Nc3cc(C(C)(C)C)nn3-c3ccc(C(=O)OC)cc3)c(Cl)c2Cl)ccn1")
8.70
>>> readout_value("COCC(=O)Nc1cc(Oc2ccc(NC(=O)Nc3cc(C(C)(C)C)nn3-c3cccc(CO)c3)c(Cl)c2Cl)ncn1")
7.85
>>> readout_value("COc1ccc(-n2nc(C(C)(C)C)cc2NC(=O)Nc2ccc(Oc3ccnc(NC(=O)N4CCC(O)C4)c3)c(Cl)c2Cl)cc1 (centres unmarked)")
9.52
>>> readout_value("COc1ccc(-n2nc(C(C)(C)C)cc2NC(=O)Nc2ccc(Oc3ccnc(NC(=O)N4CCCC4)c3)c(C#N)c2Cl)cc1")
9.30

Okay, next one:
IN: # return recorded pIC50 for input Cc1ccc(-n2nc(C(C)(C)C)cc2NC(=O)Nc2ccc(OCc3ccnc(NC(=O)N4CCCC4)c3)c(Cl)c2Cl)cc1
OUT: 7.91

====

tested-target: p38 MAPKα isoform (MAPK14) (Homo sapiens, UniProt Q16539)
Sequence (Q16539 whole entry, canonical isoform): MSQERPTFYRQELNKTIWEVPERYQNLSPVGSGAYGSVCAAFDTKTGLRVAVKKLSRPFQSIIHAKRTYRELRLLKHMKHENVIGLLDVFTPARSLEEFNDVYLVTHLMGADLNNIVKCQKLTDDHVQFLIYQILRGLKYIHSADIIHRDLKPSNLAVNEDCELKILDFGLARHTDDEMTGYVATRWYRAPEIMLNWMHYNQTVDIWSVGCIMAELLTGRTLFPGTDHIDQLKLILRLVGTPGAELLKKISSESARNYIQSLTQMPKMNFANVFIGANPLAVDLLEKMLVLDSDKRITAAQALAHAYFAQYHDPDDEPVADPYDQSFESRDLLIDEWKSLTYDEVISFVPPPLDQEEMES
assay-name: Enzyme inhibition assay (FRET, Z-LYTE), p38 MAPKα via MAPKAP-K2 activation
assay-context: read-out: Enzyme Inhibition IC50 p38α
Reported IC50 by item:
Hi! Could you send only the number? It should be in nM, unit omitted.

Some solved cases for reference:
>>> readout_value("COCC(=O)Nc1cc(Oc2ccc(NC(=O)Nc3cc(C(C)(C)C)nn3-c3ccc(C)cc3)c(C(F)(F)F)c2)ccn1")
5.1
>>> readout_value("CNC(=O)Nc1cc(Oc2ccc(NC(=O)Nc3cc(C(C)(C)C)nn3-c3ccc(OC)cc3)c(Cl)c2Cl)ncn1")
33.2
>>> readout_value("COCC(=O)Nc1cc(Oc2ccc(NC(=O)Nc3cc(C(C)(C)C)nn3-c3ccc(C)cc3)c(Cl)c2F)ccn1")
24.7

Pending molecule:
IN: Query IC50 for CN(C)[C@H]1CCN(C(=O)Nc2cc(Oc3ccc(NC(=O)Nc4cc(C(C)(C)C)nn4-c4ccc(CO)cc4)c(Cl)c3Cl)ccn2)C1
OUT: 6.7
